Cited source: ChEMBL document CHEMBL1821720

- experimental.system: Hexokinase-4 (Homo sapiens) (UniProt P35557)
- Sequence (P35557 whole entry): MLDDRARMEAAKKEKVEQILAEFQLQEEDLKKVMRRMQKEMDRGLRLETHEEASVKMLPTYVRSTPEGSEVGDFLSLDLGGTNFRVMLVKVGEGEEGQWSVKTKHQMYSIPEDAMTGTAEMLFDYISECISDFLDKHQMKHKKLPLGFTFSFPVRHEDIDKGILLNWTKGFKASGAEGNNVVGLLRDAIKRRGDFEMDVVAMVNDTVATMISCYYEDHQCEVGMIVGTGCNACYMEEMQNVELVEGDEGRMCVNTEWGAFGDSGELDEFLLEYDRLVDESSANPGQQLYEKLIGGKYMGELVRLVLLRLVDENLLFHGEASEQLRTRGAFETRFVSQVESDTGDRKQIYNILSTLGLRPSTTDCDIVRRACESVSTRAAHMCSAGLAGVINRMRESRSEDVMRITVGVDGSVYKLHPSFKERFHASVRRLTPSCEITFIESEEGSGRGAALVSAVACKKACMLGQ
- test.description: Activation of human recombinant glucokinase expressed in Escherichia coli coexpressing G6PDH at 10 uM using 5 mM glucose measured as ratio of enzyme activation in compound treated to Ro-28-1675 by G6PDH coupled continuous spectrophotometric assay
I'd appreciate it if you marked entries true when Ratio is lower than 0.2 and false when it is not.

Please review the entries below; each comes with its answer.
> print(dat)
                                   compound  assigned.label
1  CCc1sc(-c2ccccc2C(N)=O)cc1C(=O)Nc1nc2c(s1)CCC2           false
2  CCc1oc(-c2ccccc2C(N)=O)cc1C(=O)Nc1nc2c(s1)CCC2           false
3  COC(=O)c1ccccc1-c1cc(C(=O)Nc2nc3c(s2)CCC3)c(C)o1            true
4       COCc1cc(C(=O)Nc2nc3c(s2)CCC3)c(C)o1           false
5  Cc1oc(-c2ccccc2C#N)cc1C(=O)Nc1nc2c(s1)CCC2            true

Note: attention shifts to another entry.
Ask: Input O=C(Nc1nc2c(s1)CCCC2)C1CCCO1 (stereo not given) ; condition: Ratio strictly below 0.2. Does it hold?
Reply: true

* * *

- experimental.system: Hexokinase-4 (Homo sapiens) (UniProt P35557)
- test.description: Activation of human recombinant glucokinase expressed in Escherichia coli coexpressing G6PDH at 10 uM using 5 mM glucose measured as ratio of enzyme activation in compound treated to Ro-28-1675 by G6PDH coupled continuous spectrophotometric assay
// map Ratio onto a label; ranges one = under 0.01, two = from 0.01 up to 0.2, three = 0.2 and over

Please review the entries below; each comes with its answer.
> print(dat)
                           molecular.string  assigned.label
1   Cc1oc(-c2ccccn2)cc1C(=O)Nc1nc2c(s1)CCC2             two
2  COC(=O)CCc1cc(C(=O)Nc2nc3c(s2)CCC3)c(C)o1             two
3  CCc1sc(-c2ccccc2C(C)=O)cc1C(=O)Nc1nc2c(s1)CCC2           three

Ask: Bin? CCc1oc(-c2ccccc2C(C)=O)cc1C(=O)Nc1nc2c(s1)CCCC2
Reply: three

Ask: Bin? Cc1oc(-c2ccccc2)cc1C(=O)Nc1nc2c(s1)CCCC2
Reply: one

Ask: Bin? CC(=O)c1ccccc1-c1cc(C(=O)Nc2nc3c(s2)CCC3)co1
Reply: three

Ask: Bin? Cc1oc(-c2cccc(C#N)c2)cc1C(=O)Nc1nc2c(s1)CCC2
Reply: one

Ask: Bin? O=C(Nc1nc2c(s1)CCCC2)c1ccncc1
Reply: one

Ask: Bin? CC(=O)c1ccccc1-c1cc(C(=O)Nc2nc3c(s2)CCCC3)cs1
Reply: two

Ask: Bin? O=C(Nc1nc2c(s1)CCCC2)c1cccnc1
Reply: two

Ask: Bin? CC(=O)c1ccccc1-c1cc(C(=O)Nc2nc3c(s2)CCCC3)c(C)s1
Reply: three

* * *

// reported Activity for each item listed
- experimental.system: UniProt P35557
- test.description: Activation of human recombinant glucokinase expressed in Escherichia coli coexpressing G6PDH at 10 uM using 20 mM glucose by G6PDH coupled continuous spectrophotometric assay relative to Ro-28-1675
# output: bare number, implied unit %

Example compounds with recorded Activity:
> print(dat)
                           molecular.string  reported.result
1         Cc1cc(C(=O)Nc2nc3c(s2)CCC3)c(C)s1               20
2         Cc1cc(C(=O)Nc2nc3c(s2)CCC3)c(C)o1               20
3  CCc1sc(-c2ccccc2C(N)=O)cc1C(=O)Nc1nc2c(s1)CCC2               69

Here's the next entry for you.
Ask: Request: Activity, test system UniProt P35557, entry CC(=O)c1ccccc1-c1cc(C(=O)Nc2nc3c(s2)CCC3)c(C)s1
Reply: 63
